B1: ZBED3 (parent)
chain: GPGFHAGTSALWRHLRSAHRRELE

- Variants of: B1
- test-summary: protein stability index of a GFP-peptide fusion (GPS, HEK-293T) (PSI 1-6); higher = more stable;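 note: lentivirally expressed fusions sorted by FACS into six bins by GFP to DsRed ratio, PSI derived from sequencing read proportions per bin multiplied by bin number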
- assay-setup: c terminus: a fixed tail appended
Rule: protein stability index under 2 gives Condition not met, otherwise Condition met.

Example entries and their recorded answers appear below.
>  <monomer-sequence>
GPGFHAGTSALWRHLRSAHRRELW [E24W]

>  <answer-label>
Condition not met

$$$$
>  <monomer-sequence>
GPGFHDGTSALWRHLRSAHRRELE [A6D]

>  <answer-label>
Condition met

$$$$
>  <monomer-sequence>
GPGFHAGTSALWWHLRSAHRRELE [R13W]

>  <answer-label>
Condition not met

$$$$
>  <monomer-sequence>
GPGGHAGTSALWRHLRSAHRRELE [F4G]

>  <answer-label>
Condition met

$$$$
>  <monomer-sequence>
GPGFHAGTQALWRHLRSAHRRELE [S9Q]

>  <answer-label>
Condition met

$$$$
>  <monomer-sequence>
HPGFHAGTSALWRHLRSAHRRELE [G1H]

>  <answer-label>
Condition met

$$$$

Problem: Determine whether measured protein stability index meets or exceeds 2 for GPGFHAGTSALWRHLRSAHRRERE [L23R]
Result: Condition met

Problem: Determine whether measured protein stability index meets or exceeds 2 for GPGFHAGTSALWRHLRDAHRRELE [S17D]
Result: Condition met

Problem: Determine whether measured protein stability index meets or exceeds 2 for GPGFHAGTSALWRHLESAHRRELE [R16E]
Result: Condition met

Problem: Determine whether measured protein stability index meets or exceeds 2 for GPGFHAGTSALWRHGRSAHRRELE [L15G]
Result: Condition not met

Problem: Determine whether measured protein stability index meets or exceeds 2 for GPGFHAGTVALWRHLRSAHRRELE [S9V]
Result: Condition not met

Problem: Determine whether measured protein stability index meets or exceeds 2 for GPGFHAGTSALWRHLLSAHRRELE [R16L]
Result: Condition not met
